measuredMetric: melting point

The reported melting point of the compound `CCn1c(-c2cc(F)ccc2F)nc2c(N)nc(C#CC3(O)CCC3)nc21.Cl` was 141 to 143 °C

The reported melting point of the compound `CCn1c(-c2cc(F)ccc2F)nc2c(N)nc(C#CC(O)(CC)CC)nc21.Cl` was 163 to 166 °C

Lab note: measured melting point of `Cl.Cn1c(-c2cc(F)cc(F)c2)nc2c(N)nc(C#CC3(O)CCCC3)nc21` was 255 to 258 °C

Lab book: melting point of `CCn1c(-c2cccc(F)c2)nc2c(N)nc(C#CC3(O)CCC3)nc21.Cl` noted as 160 to 163 °C

What the record says about Cl.Cn1c(-c2cccc(F)c2)nc2c(N)nc(C#CC3(O)CCC(c4ccccc4)CC3)nc21 (stereo not drawn) : melting point is 247 to 249 °C

`CCCn1c(-c2cccc(F)c2)nc2c(N)nc(C#CC(O)(CC)CC)nc21.Cl` has a reported melting point of 144 to 147 °C

Sample `CCCn1c(-c2cccc(F)c2F)nc2c(N)nc(C#CC(C)(C)O)nc21.Cl` ; melting point observed: 230 to 233 °C

# melting point (compound: `Cl.Nc1nc(C#CC2(O)CCC2)nc2c1nc(-c1cccc(F)c1)n2C1CC1` ) is 167 to 170 °C

get_value(item= `CC(C)(O)C#Cc1nc(N)c2nc(-c3cc(F)ccc3F)n(C3CC3)c2n1.Cl` , readout=melting point) returns 196 to 198 °C

###

Molecular target: Human adenosine A1 receptor (Homo sapiens, UniProt P30542)
Sequence (P30542 1-326): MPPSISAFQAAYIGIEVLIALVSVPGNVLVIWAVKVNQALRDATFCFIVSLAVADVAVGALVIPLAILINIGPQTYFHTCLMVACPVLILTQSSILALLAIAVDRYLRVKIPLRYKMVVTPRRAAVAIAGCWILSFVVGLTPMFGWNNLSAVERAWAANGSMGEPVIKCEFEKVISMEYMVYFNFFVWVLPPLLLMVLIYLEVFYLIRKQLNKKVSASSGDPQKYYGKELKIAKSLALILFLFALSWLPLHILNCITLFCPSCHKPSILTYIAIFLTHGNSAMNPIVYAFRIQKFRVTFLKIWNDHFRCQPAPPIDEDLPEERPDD
measuredMetric: Ki (nM)
Give a bare numeral; the unit nM is implied.

// Ki value for Cn1c(-c2cccc(F)c2)nc2c(N)nc(C#CC3(O)CCCC3)nc21 [drawing 260] : 19

Short answer for Fc1cccc(-c2nc3cccnc3n2-c2ccncc2)c1 [drawing 261] : Ki was 54

What the record says about CCn1c(-c2cccc(F)c2)nc2c(N)nc(C#CC3(O)CCC3)nc21 [drawing 259] : Ki is 24

###

I'd appreciate it if you could supply pKi values for the items below.
Just so you know, pKi here is -log10 of the concentration in molar units; reply with that number alone.

Reported adenosine A2a receptor (Homo sapiens) pKi for item CCn1c(-c2cccc(F)c2)nc2c(N)nc(C#CC3(O)CCC3)nc21 [drawing 259] was 8.70

Record Fc1cccc(-c2nc3cccnc3n2-c2ccncc2)c1 [drawing 261] / adenosine A2a receptor (Homo sapiens), pKi recorded as 6.12

###

Task for the reader: assign each of the following molecules its reported melting point.

Looking up `Cl.Cn1c(-c2ccco2)nc2c(N)nc(C#CC3(O)CCCC3)nc21` , I found its melting point recorded as 168 to 172 °C

Looking up `Cl.Nc1nc(C#CC2(O)CCCC2)nc2c1nc(-c1cccc(F)c1)n2C1CC1` , I see its melting point listed as 220 to 223 °C

Lab note: measured melting point of CCCn1c(-c2cccc(F)c2)nc2c(N)nc(C#CC3(O)CCCC3)nc21.Cl [Example 169] was 198 to 200 °C

For `Cl.Cn1c(-c2cccc(F)c2)nc2c(N)nc(/C=C/C(C)(C)O)nc21` the molecule record lists melting point as > 290 °C

Please fill in: melting point reported for `CCn1c(-c2cccc(F)c2)nc2c(N)nc(C#CC(C)(C)O)nc21.Cl` = 193 to 196 °C

According to the records, this molecule Cl.Cn1c(-c2cccc(F)c2)nc2c(N)nc(C#CC3(O)CCC3)nc21 [Example 89] displays melting point of 198 to 199 °C

Notebook: Cn1c(-c2cccc(F)c2)nc2c(N)nc(C#CC3(O)C=CCC3)nc21 (stereo not drawn) [Example 122] , melting point read as 191 to 193 °C

# melting point of `Cl.Cn1c(-c2ccco2)nc2c(N)nc(C#CCCC3CCCCC3)nc21` = 165 to 169 °C

Sample `Cl.Cn1c(-c2cc(F)ccc2F)nc2c(N)nc(C#CC3(O)CCC3)nc21` ; melting point observed: 149 to 152 °C

Lab book: melting point of `CCC(O)(C#Cc1nc(N)c2nc(-c3cc(F)cc(F)c3)n(C3CC3)c2n1)CC.Cl` noted as 225 °C

melting point reading for `Cl.Cn1c(-c2cccc(F)c2)nc2c(N)nc(/C=C/C3(O)CCCCC3)nc21` : 222 to 225 °C

Note to self: melting point recorded for `CCCn1c(-c2cc(F)ccc2F)nc2c(N)nc(C#CC3(O)CCCC3)nc21.Cl` was 232 to 234 °C

Record `CC(C)(O)C#Cc1nc(N)c2nc(-c3cc(F)cc(F)c3)n(C3CC3)c2n1.Cl` . Reported melting point: 245 °C

So, `CCCn1c(-c2cc(F)ccc2F)nc2c(N)nc(C#CC(C)(C)O)nc21.Cl` ? Its melting point was 194 to 196 °C

The molecule listed as `CCCn1c(-c2cc(F)cc(F)c2)nc2c(N)nc(C#CC(O)(CC)CC)nc21.Cl` shows melting point equal to 183 to 184 °C

Measured melting point of `CCn1c(-c2cccc(F)c2F)nc2c(N)nc(C#CC3(O)CCCC3)nc21.Cl` : 138 to 140 °C

Recorded result, `CCn1c(-c2cc(F)cc(F)c2)nc2c(N)nc(C#CC(C)(C)O)nc21.Cl` , melting point: 233 to 234 °C

# melting point (molecule: `Cl.Cn1c(-c2cc(F)cc(F)c2)nc2c(N)nc(C#CC(C)(C)O)nc21` ) is 237 to 238 °C

get_value(item= Cl.Cn1c(-c2cccc(F)c2)nc2c(N)nc(/C=C/C3(O)CCCC3)nc21 [Example 208] , readout=melting point) returns > 290 °C

Record CCCn1c(-c2cccc(F)c2)nc2c(N)nc(C#CC3(O)CCC3)nc21.Cl [Example 170] . Reported melting point: 144 to 146 °C

The recorded melting point for entry `CCC(O)(C#Cc1nc(N)c2nc(-c3ccc(C)o3)n(C)c2n1)CC.Cl` equals 229 to 230 °C

// field: melting point; key: `CCn1c(-c2cccc(F)c2)nc2c(N)nc(/C=C/C3(O)CCC3)nc21.Cl` ; value = 178 to 180 °C

The molecule listed as CCC(O)(C#Cc1nc(N)c2nc(-c3ccccc3F)n(C)c2n1)CC [Example 149] shows melting point equal to 199 to 201 °C

For this molecule ( `CCCn1c(-c2cccc(F)c2F)nc2c(N)nc(C#CC3(O)CCCC3)nc21.Cl` ), measured melting point is 184 to 188 °C

Per the records, this molecule ( `CCCn1c(-c2cc(F)ccc2F)nc2c(N)nc(C#CC(O)(CC)CC)nc21.Cl` ) has melting point equal to 164 to 165 °C

The reported value for Cn1c(-c2cc(F)cc(F)c2F)nc2c(N)nc(C#CC3(O)CCC3)nc21 [Example 126] in terms of melting point is 231 to 234 °C

Query `Cl.Nc1nc(C#CC2(O)CCCCC2)nc2c1nc(-c1cccc(F)c1)n2C1CCCC1` yields melting point of 196 to 200 °C

Entry `CCn1c(-c2cccc(F)c2F)nc2c(N)nc(C#CC(O)(CC)CC)nc21.Cl` ; melting point = 222 to 224 °C

For this molecule ( `Cl.Cn1c(-c2ccco2)nc2c(N)nc(C#CCCO)nc21` ), measured melting point is 161 to 164 °C

Per the records, this molecule ( Cl.Cn1c(-c2cccc(F)c2)nc2c(N)nc(C#CC(C)(O)C(C)(C)C)nc21 (stereo not drawn) ) has melting point equal to 193 to 194 °C

// field: melting point; key: `CCn1c(-c2cccc(F)c2)nc2c(N)nc(C#CC(O)(CC)CC)nc21.Cl` ; value = 150 to 153 °C

Entry `CCC(O)(C#Cc1nc(N)c2nc(-c3cccc(F)c3)n(C3CC3)c2n1)CC.Cl` ; melting point = 145 to 148 °C

Form: molecule = `Cl.Nc1nc(C#CC2(O)CCC2)nc2c1nc(-c1cc(F)ccc1F)n2C1CC1` ; melting point = 161 to 164 °C

Consider `CCn1c(-c2cc(F)ccc2F)nc2c(N)nc(C#CC(C)(C)O)nc21.Cl` . Its measured melting point is 215 to 218 °C

Looking up `CCC(O)(C#Cc1nc(N)c2nc(-c3cc(F)ccc3F)n(C3CC3)c2n1)CC.Cl` , I found its melting point recorded as 215 to 216 °C

// melting point value for CCCn1c(-c2cccc(F)c2)nc2c(N)nc(C#CC(C)(C)O)nc21.Cl [Example 171] : 167 to 168 °C

melting point in this record for Cn1c(-c2ccccc2F)nc2c(N)nc(C#CC3(O)CCC3)nc21 [Example 146] : 136 to 138 °C

Record Cn1c(-c2cccc(F)c2F)nc2c(N)nc(C#CC3(O)CCC3)nc21 [Example 127] , field melting point: 225 to 229 °C

Value of melting point reported for the molecule `CCCn1c(-c2cccc(F)c2F)nc2c(N)nc(C#CC3(O)CCC3)nc21.Cl` is 124 to 127 °C
